- subjectOfTest: Cytochrome P450 2D6 (Homo sapiens)
- Sequence (P10635 whole entry): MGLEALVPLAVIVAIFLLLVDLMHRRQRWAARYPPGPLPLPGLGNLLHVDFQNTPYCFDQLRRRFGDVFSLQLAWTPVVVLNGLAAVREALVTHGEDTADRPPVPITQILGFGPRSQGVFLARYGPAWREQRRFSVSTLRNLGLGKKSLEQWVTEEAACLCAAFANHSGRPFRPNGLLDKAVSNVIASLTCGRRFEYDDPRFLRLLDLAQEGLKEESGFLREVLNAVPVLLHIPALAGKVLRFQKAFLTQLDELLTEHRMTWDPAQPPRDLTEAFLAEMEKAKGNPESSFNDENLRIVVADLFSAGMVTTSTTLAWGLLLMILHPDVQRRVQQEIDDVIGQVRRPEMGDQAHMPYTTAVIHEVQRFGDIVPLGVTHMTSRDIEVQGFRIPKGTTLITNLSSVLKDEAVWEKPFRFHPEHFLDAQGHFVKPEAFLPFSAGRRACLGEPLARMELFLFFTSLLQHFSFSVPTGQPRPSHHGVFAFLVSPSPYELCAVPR
- assayContext: bti-tn-5b1-4
measurementLabel: IC50

Below, each entry is followed by its recorded IC50 result.
compound: C[C@@H]1[C@H](O)[C@@H](C)/C=C/C=C/C=C/C=C/C=C/C=C/C=C/[C@H](O[C@@H]2O[C@H](C)[C@@H](O)[C@H](N)[C@@H]2O)C[C@@H]2O[C@](O)(C[C@@H](O)C[C@@H](O)[C@H](O)CC[C@@H](O)C[C@@H](O)CC(=O)O[C@H]1C)C[C@H](O)[C@H]2C(=O)O [AMPHOTERICIN B]
IC50: Not Active
//
compound: CC[C@@]1(O)C(=O)OCc2c1cc1n(c2=O)Cc2cc3c(CN(C)C)c(O)ccc3nc2-1 [TOPOTECAN]
IC50: Not Active
//
compound: C[C@H](C(=O)O)c1ccc2oc(-c3ccc(F)cc3)nc2c1 [FLUNOXAPROFEN]
IC50: Not Active
//
compound: c1ccc2sc(SSc3nc4ccccc4s3)nc2c1 [BENZOTHIAZYL DISULFIDE]
IC50: Not Active
//
compound: COC(=O)C[C@](O)(CCC(C)(C)O)C(=O)O[C@@H]1C(OC)=C[C@]23CCCN2CCc2cc4c(cc2[C@H]13)OCO4 [HARRINGTONINE]
IC50: Not Active

// CCN1CCN(c2cc3c(cc2F)c(=O)c(C(=O)O)cn3C2CC2)CC1 [ENROFLOXACIN] : IC50 value = Not Active

----------
- subjectOfTest: Substance-K receptor (Homo sapiens)
- Sequence (P21452 whole entry): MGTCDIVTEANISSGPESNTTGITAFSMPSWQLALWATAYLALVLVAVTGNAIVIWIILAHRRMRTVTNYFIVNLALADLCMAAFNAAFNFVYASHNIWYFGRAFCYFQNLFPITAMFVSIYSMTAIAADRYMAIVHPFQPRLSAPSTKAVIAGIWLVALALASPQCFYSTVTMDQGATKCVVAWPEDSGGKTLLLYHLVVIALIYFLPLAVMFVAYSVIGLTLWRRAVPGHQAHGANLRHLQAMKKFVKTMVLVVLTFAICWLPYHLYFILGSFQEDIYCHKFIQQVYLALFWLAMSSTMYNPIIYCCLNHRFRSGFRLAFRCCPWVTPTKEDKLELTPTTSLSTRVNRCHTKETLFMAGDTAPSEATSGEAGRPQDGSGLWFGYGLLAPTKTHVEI
- Format: cell membranes, CHO, Membrane
- assayContext: read-out: Ki
The entries below come with measured pKi values attached.
# reply with the number alone; pKi is -log10 of concentration in mol/L

compound: CC[C@H](C)[C@@H](CO[C@@H](Cc1ccccc1)C(=O)N[C@@H](CCS(C)(=O)=O)C(=O)OC(C)C)NC[C@@H](N)CS
valueObserved: 6.27
//
compound: CN1C[C@H](CNC(=O)OCc2ccccc2)C[C@@H]2c3cccc4c3c(cn4C)C[C@H]21 [METERGOLINE]
valueObserved: 5.87
//
compound: Clc1cc(Cl)c(OCC#CI)cc1Cl [HALOPROGIN]
valueObserved: 6.31
//
compound: CN(CCOc1ccc(C[C@H](Nc2ccccc2C(=O)c2ccccc2)C(=O)O)cc1)c1ccccn1
valueObserved: 5.32

// CC1(COc2ccc(CC3SC(=O)NC3=O)cc2)CCCCC1 (stereo not given) [CIGLITAZONE] : pKi value = 5.38

----------
- subjectOfTest: UniProt O76074
- experiment: DRUGMATRIX: Phosphodiesterase PDE5 enzyme inhibition (substrate: [3H]cGMP + cGMP)
- Assay type: tissue-based, Platelet
- assayContext: platelet; Not Active = under 50% inhibition at 10 µM
measurementLabel: IC50

compound: c1ccc2sc(SSc3nc4ccccc4s3)nc2c1 [BENZOTHIAZYL DISULFIDE]
valueObserved: Not Active

compound: C[N+](C)(C)CCOP(=O)([O-])OC[C@H](O)CO
valueObserved: Not Active

compound: C[C@@H]1[C@H](O)[C@@H](C)/C=C/C=C/C=C/C=C/C=C/C=C/C=C/[C@H](O[C@@H]2O[C@H](C)[C@@H](O)[C@H](N)[C@@H]2O)C[C@@H]2O[C@](O)(C[C@@H](O)C[C@@H](O)[C@H](O)CC[C@@H](O)C[C@@H](O)CC(=O)O[C@H]1C)C[C@H](O)[C@H]2C(=O)O
valueObserved: Not Active
